Reported inhibition at 100 µM values for the following compounds.
Target: FATP4 (Homo sapiens, UniProt Q6P1M0)
Construct: expressed in transfected cells; host or cells: 293 cells (human kidney), stably transfected with pIRES-neo-hsFATP4, G418-selected
Sequence (Q6P1M0 whole entry): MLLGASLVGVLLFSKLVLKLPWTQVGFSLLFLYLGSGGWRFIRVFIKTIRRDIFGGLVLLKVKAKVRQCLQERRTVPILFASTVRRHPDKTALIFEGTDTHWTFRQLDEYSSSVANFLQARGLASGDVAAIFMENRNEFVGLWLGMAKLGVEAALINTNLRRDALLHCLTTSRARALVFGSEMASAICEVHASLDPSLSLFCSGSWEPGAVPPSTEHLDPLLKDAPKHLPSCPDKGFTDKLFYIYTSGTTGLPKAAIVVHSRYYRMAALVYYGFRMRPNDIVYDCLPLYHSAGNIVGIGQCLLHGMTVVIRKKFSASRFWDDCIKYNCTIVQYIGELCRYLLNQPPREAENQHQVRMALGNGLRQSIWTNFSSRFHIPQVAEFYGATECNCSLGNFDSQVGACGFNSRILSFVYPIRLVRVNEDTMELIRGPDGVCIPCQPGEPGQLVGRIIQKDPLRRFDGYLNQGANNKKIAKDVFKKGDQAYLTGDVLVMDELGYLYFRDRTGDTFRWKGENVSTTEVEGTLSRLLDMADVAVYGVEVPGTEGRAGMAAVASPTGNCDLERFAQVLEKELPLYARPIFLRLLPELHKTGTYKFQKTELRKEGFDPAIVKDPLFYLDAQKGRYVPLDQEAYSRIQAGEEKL
Assay: Competition of Bodipy-FA uptake by FATP4 expressing cells (FACS)
Format: cell-based
Conditions: read-out: Competition (inhibition of Bodipy-FA uptake)

CCCCCC(=O)O [Caproic Acid]    0 to 30%

In: Record CCCCCCCCCCCCCC(=O)O [Myristic Acid] : what is its inhibition at 100 µM with FATP4 (Homo sapiens, UniProt Q6P1M0)?
Out: 70 to 100%

In: Observed inhibition at 100 µM on FATP4 (Homo sapiens, UniProt Q6P1M0) for CCCCCCCCCCCCCCCCCC(=O)OC [Stearic Acid Methyl Ester] , please.
Out: 0 to 30%

In: Param readout = inhibition at 100 µM; param system = FATP4 (Homo sapiens, UniProt Q6P1M0); param query = CCCCCCCCCCCCCCCCCCCCCCCC(=O)O [Lignoceric Acid] ; response: value
Out: 70 to 100%

In: I'm curious: which inhibition at 100 µM was measured for CCCCCCCC(=O)O [Octanoate, Caprylic Acid] tested on FATP4 (Homo sapiens, UniProt Q6P1M0)?
Out: 0 to 30%
